Biological target: HLA-B*83:01
Assay: IEDB peptide-MHC binding, purified MHC/competitive/fluorescence; filed as Kd, often an IC50 or EC50 that approximates it; bounds were set here for any values at or beyond the usual limits of such assays
Conditions: source organism: Burkholderia pseudomallei S13
Observable: Kd

Record `GFYLSGHLF` . Reported Kd: ≥ 5 µM

----------
Biological target: HLA-B*51:01
Assay: IEDB peptide-MHC binding, purified MHC/competitive/radioactivity; filed as Kd, often an IC50 or EC50 that approximates it; bounds were set here for any values at or beyond the usual limits of such assays
Settings: source organism: Mammarenavirus guanaritoense
Observable: pKd
Answer as the number alone; pKd is minus log10 of concentration in mol/L.

Documented pKd of `LPIFSEFVL` : 4.73
